The entries below are paired with their reported Accuracy (RE, %) Frozen for 30 days.
- Assay type: physicochemical, mice
- experimental-conditions: stability in mice plasma/blood QC sample, −80°C, spiked concentration 3.9
metric: Accuracy (RE, %) Frozen for 30 days

1) COc1cc(CCC(C)=O)ccc1O    −5.9
2) O=c1c(O)c(-c2ccc(O)c(O)c2)oc2cc(O)cc(O)c12    −2.6
3) COc1ccc(-c2coc3cc(O)ccc3c2=O)cc1    13.5
4) CC(C)=CCC[C@](C)(O[C@@H]1O[C@H](CO)[C@@H](O)[C@H](O)[C@H]1O)[C@H]1CC[C@]2(C)[C@@H]1[C@H](O)C[C@@H]1[C@@]3(C)CC[C@H](O)C(C)(C)[C@@H]3[C@@H](O[C@@H]3O[C@H](CO)[C@@H](O)[C@H](O)[C@H]3O[C@@H]3O[C@@H](C)[C@H](O)[C@@H](O)[C@H]3O)C[C@]12C [Re, ginsenoside Re]    10.4
5) CCCCC[C@H](O)CC(=O)CCc1ccc(O)c(OC)c1    4.4
6) CC1(C)[C@@H](O)CC[C@]2(C)[C@H]3C(=O)C=C4[C@@H]5C[C@@](C)(C(=O)O)CC[C@]5(C)CC[C@@]4(C)[C@]3(C)CC[C@@H]12    6.9

* * *

- Assay type: physicochemical, mice
- experimental-conditions: stability in mice plasma/blood QC sample, spiked concentration 3.9
metric: Accuracy (RE, %) 25°C for 6 h

1. O=c1c(O)c(-c2ccc(O)c(O)c2)oc2cc(O)cc(O)c12    −4.8
2. O=c1cc(-c2ccccc2)oc2cc(O)c(O)c(O)c12    10.3
3. COc1ccc(-c2coc3cc(O)ccc3c2=O)cc1    8.0

* * *

Recorded Accuracy (RE, %) 4°C for 24 h for the following compounds
- Format: physicochemical, mice
- experimental-conditions: stability, extracted QC sample in auto-sampler, spiked concentration 0.488
metric: Accuracy (RE, %) 4°C for 24 h

1) CC(C)=CCC[C@](C)(O[C@@H]1O[C@H](CO)[C@@H](O)[C@H](O)[C@H]1O)[C@H]1CC[C@]2(C)[C@@H]1[C@H](O)C[C@@H]1[C@@]3(C)CC[C@H](O)C(C)(C)[C@@H]3[C@@H](O[C@@H]3O[C@H](CO)[C@@H](O)[C@H](O)[C@H]3O)C[C@]12C [Rg1, ginsenoside Rg1]    4.7
2) CC(C)=CCC[C@](C)(O)[C@H]1CC[C@]2(C)[C@@H]1[C@H](O)C[C@@H]1[C@@]3(C)CC[C@H](O[C@@H]4O[C@H](CO)[C@@H](O)[C@H](O)[C@H]4O[C@@H]4O[C@H](CO)[C@@H](O)[C@H](O)[C@H]4O)C(C)(C)[C@@H]3CC[C@]12C [Rg3, ginsenoside Rg3]    1.57
3) O=C1C[C@@H](c2ccc(O[C@@H]3O[C@H](CO)[C@@H](O)[C@H](O)[C@H]3O)cc2)Oc2cc(O)ccc21    14.4
4) COc1c(O[C@@H]2O[C@H](C(=O)O)[C@@H](O)[C@H](O)[C@H]2O)cc(O)c2c(=O)cc(-c3ccccc3)oc12 [Wogonoside, wogonoside]    2.3
5) CC(C)=CCC[C@](C)(O[C@@H]1O[C@H](CO)[C@@H](O)[C@H](O)[C@H]1O)[C@H]1CC[C@]2(C)[C@@H]1[C@H](O)C[C@@H]1[C@@]3(C)CC[C@H](O[C@@H]4O[C@H](CO)[C@@H](O)[C@H](O)[C@H]4O[C@@H]4O[C@H](CO)[C@@H](O)[C@H](O)[C@H]4O)C(C)(C)[C@@H]3CC[C@]12C [Rd, Ginsenoside Rd]    −4

* * *

- Type: physicochemical, mice
- experimental-conditions: stability in mice plasma/blood QC sample, −80°C, spiked concentration 6.25
Reported Accuracy (RE, %) Frozen for 30 days values follow for various compounds
metric: Accuracy (RE, %) Frozen for 30 days

1) CC(C)=CCC[C@](C)(O)[C@H]1CC[C@]2(C)[C@@H]1[C@H](O)C[C@@H]1[C@@]3(C)CC[C@H](O[C@@H]4O[C@H](CO)[C@@H](O)[C@H](O)[C@H]4O[C@@H]4O[C@H](CO)[C@@H](O)[C@H](O)[C@H]4O)C(C)(C)[C@@H]3CC[C@]12C [Rg3, ginsenoside Rg3]    8.0
2) C[C@H]1O[C@@H](O[C@H]2CC[C@@]3(C)[C@@H](CC[C@]4(C)[C@@H]3C=C[C@]35OC[C@@]6(CCC(C)(C)C[C@H]63)[C@H](O)C[C@]54C)[C@]2(C)CO)[C@H](O)[C@@H](O[C@@H]2O[C@H](CO)[C@@H](O)[C@H](O)[C@H]2O)[C@H]1O    12.5
3) C[C@@H]1O[C@@H](OC[C@H]2O[C@@H](Oc3c(-c4ccc(O)c(O)c4)oc4cc(O)cc(O)c4c3=O)[C@H](O)[C@@H](O)[C@@H]2O)[C@H](O)[C@H](O)[C@H]1O    8.5
4) C[C@H]1O[C@@H](O[C@H]2CC[C@@]3(C)[C@@H](CC[C@]4(C)[C@@H]3C=C[C@]35OC[C@@]6(CCC(C)(C)C[C@H]63)[C@@H](O)C[C@]54C)[C@]2(C)CO)[C@H](O)[C@@H](O[C@@H]2O[C@H](CO)[C@@H](O)[C@H](O)[C@H]2O)[C@H]1O    10.8

* * *

- Type: physicochemical, mice
- experimental-conditions: stability in mice plasma/blood QC sample, −80°C, spiked concentration 3.9
Accuracy (RE, %) Frozen for 30 days values for the compounds below.
metric: Accuracy (RE, %) Frozen for 30 days

1) O=c1cc(-c2ccccc2)oc2cc(O)c(O)c(O)c12 [Baicalein, baicalein]    −11.4
2) COc1c(O)cc(O)c2c(=O)cc(-c3ccccc3)oc12 [Wogonin, wogonin]    8.4
3) O=C(O)[C@H]1O[C@@H](Oc2cc3oc(-c4ccccc4)cc(=O)c3c(O)c2O)[C@H](O)[C@@H](O)[C@@H]1O [Baicalin, baicalin]    6.7

* * *

- test-method-notes: in vivo
- Assay type: in vivo, A/J mice
- experimental-conditions: male, A/J, mouse, whole blood, po, 0.5 g/kg
metric: Cmax

1) CC1(C)[C@@H](O)CC[C@]2(C)[C@H]3C(=O)C=C4[C@@H]5C[C@@](C)(C(=O)O)CC[C@]5(C)CC[C@@]4(C)[C@]3(C)CC[C@@H]12    263 nM

* * *

Listed compounds paired with reported Tmax
- test-method-notes: in vivo
- Assay type: in vivo, A/J mice
- experimental-conditions: male, A/J, mouse, whole blood, po, 500 mg/kg
metric: Tmax (min)

1. CC(C)=CCC[C@](C)(O[C@@H]1O[C@H](CO)[C@@H](O)[C@H](O)[C@H]1O)[C@H]1CC[C@]2(C)[C@@H]1[C@H](O)C[C@@H]1[C@@]3(C)CC[C@H](O)C(C)(C)[C@@H]3[C@@H](O[C@@H]3O[C@H](CO)[C@@H](O)[C@H](O)[C@H]3O[C@@H]3O[C@@H](C)[C@H](O)[C@@H](O)[C@H]3O)C[C@]12C [Re, ginsenoside Re]    15
2. COc1c(O)cc(O)c2c(=O)cc(-c3ccccc3)oc12    10
3. O=C(O)[C@H]1O[C@@H](Oc2cc3oc(-c4ccccc4)cc(=O)c3c(O)c2O)[C@H](O)[C@@H](O)[C@@H]1O    154
4. O=c1cc(-c2ccccc2)oc2cc(O)c(O)c(O)c12    4.98

* * *

- test-method-notes: in vivo
- Assay type: in vivo, A/J mice
- experimental-conditions: male, A/J, mouse, whole blood, po, 500 mg/kg
Consider the following molecules and their measured AUC(0-inf) readings.
metric: AUC(0-inf) (µM·h)

1. CC(C)=CCC[C@](C)(O[C@@H]1O[C@H](CO)[C@@H](O)[C@H](O)[C@H]1O)[C@H]1CC[C@]2(C)[C@@H]1[C@H](O)C[C@@H]1[C@@]3(C)CC[C@H](O)C(C)(C)[C@@H]3[C@@H](O[C@@H]3O[C@H](CO)[C@@H](O)[C@H](O)[C@H]3O[C@@H]3O[C@@H](C)[C@H](O)[C@@H](O)[C@H]3O)C[C@]12C [Re, ginsenoside Re]    0.045
2. CC1(C)[C@@H](O)CC[C@]2(C)[C@H]3C(=O)C=C4[C@@H]5C[C@@](C)(C(=O)O)CC[C@]5(C)CC[C@@]4(C)[C@]3(C)CC[C@@H]12    3.3

* * *

- Assay type: physicochemical, mice
- experimental-conditions: stability in mice plasma/blood QC sample, spiked concentration 500
Reported Accuracy (RE, %) 25°C for 6 h is given for each of the following compounds.
metric: Accuracy (RE, %) 25°C for 6 h

1) CC(C)=CCC[C@](C)(O[C@@H]1O[C@H](CO)[C@@H](O)[C@H](O)[C@H]1O)[C@H]1CC[C@]2(C)[C@@H]1[C@H](O)C[C@@H]1[C@@]3(C)CC[C@H](O[C@@H]4O[C@H](CO)[C@@H](O)[C@H](O)[C@H]4O[C@@H]4O[C@H](CO)[C@@H](O)[C@H](O)[C@H]4O)C(C)(C)[C@@H]3CC[C@]12C [Rd, Ginsenoside Rd]    −7.1
2) CCCCC[C@H](O)CC(=O)CCc1ccc(O)c(OC)c1    −1.0
3) CC1(C)[C@@H](O)CC[C@]2(C)[C@H]3C(=O)C=C4[C@@H]5C[C@@](C)(C(=O)O)CC[C@]5(C)CC[C@@]4(C)[C@]3(C)CC[C@@H]12    8.1
4) CC(C)=CCC[C@](C)(O[C@@H]1O[C@H](CO)[C@@H](O)[C@H](O)[C@H]1O)[C@H]1CC[C@]2(C)[C@@H]1[C@H](O)C[C@@H]1[C@@]3(C)CC[C@H](O)C(C)(C)[C@@H]3[C@@H](O[C@@H]3O[C@H](CO)[C@@H](O)[C@H](O)[C@H]3O)C[C@]12C [Rg1, ginsenoside Rg1]    8.5

Data origin, for the record: paper PMC4608253
